- system: DNA-PK protein complex (Homo sapiens)
- assay protocol: Biochemical DNA-PK assay (FlashPlate)
pIC50: −log10 of the molar value.
measured parameter: pIC50

Completed entries (count: 2):
{"compound": "Cn1cc(-c2cc(-c3ccsc3)ccn2)n(-c2ccc(C(C)(C)C#N)cc2)c1=O [Example A26]", "pIC50": "7.00 to 10.00"}
{"compound": "COc1ccc(-c2ccnc(-c3cn(C)c(=O)n3-c3ccc(N4CCNCC4)c(C(F)(F)F)c3)c2)cn1 [Example A20]", "pIC50": "7.00 to 10.00"}

Bench note: what pIC50 did COc1cccc(-n2c(-c3cc(-c4cnc5[nH]ccc5c4)ccn3)cn(C)c2=O)c1 [Example A73] show? 7.00 to 10.00

Field request: pIC50 | item: Cc1cc2cc(-c3ccnc(-c4cn(C)c(=O)n4-c4ccc(N5CCN(C)CC5)c(C(F)(F)F)c4)c3)cnc2[nH]1 [Example A88] 5.00 to 7.00

Returns the measured pIC50 for the input compound. Input: Cn1cc(-c2cc(-c3cnc(N)c(C(F)(F)F)c3)ccn2)n(-c2cccc(C#N)c2)c1=O [Example A64] 7.00 to 10.00

For Cn1cc(-c2cc(-c3cnc4[nH]ccc4c3)ccn2)n(-c2ccccc2C(F)(F)F)c1=O [Example A67] , what is its reported pIC50? 7.00 to 10.00

Look up pIC50: Cn1cc(-c2cc(-c3cnc(N)c(C(F)(F)F)c3)ccn2)n(-c2ccc(F)c(C(F)(F)F)c2)c1=O [Example A97] 5.00 to 7.00

Query (compound): COc1ccc(Cn2c(-c3cc(-c4cnc5[nH]ccc5c4)ccn3)cn(C)c2=O)cc1 [Example A108] ; field requested: pIC50 7.00 to 10.00

Sample CCc1cc(-c2c[nH]c3ncc(-c4ccnc(-c5cn(C)c(=O)n5-c5ccc(C(C)(C)C#N)cc5)c4)cc23)nc(N)n1 [Example A99] — what was its pIC50? 7.00 to 10.00

Can you share its pIC50? I mean this compound: Cn1cc(-c2cc(-c3cnc4[nH]ccc4c3)ccn2)n(-c2cccc(Oc3ccccc3)c2)c1=O [Example A90] 7.00 to 10.00

Report pIC50 for COc1cc(-c2ccnc(-c3cn(C)c(=O)n3-c3ccc(C(C)(C)C#N)cc3)c2)ccn1 [Example A6] please. 5.00 to 7.00

Which pIC50 value belongs to CN1CCN(c2ccc(-n3c(-c4cc(-c5cnc6[nH]ccc6c5)ccn4)cn(C)c3=O)cc2C#N)CC1 [Example A83] ? 5.00 to 7.00

Given the compound Cn1cc(-c2cc(-c3c[nH]c4ncccc34)ccn2)n(-c2ccc(C(C)(C)C#N)cc2)c1=O [Example A100] , what is its reported pIC50? 5.00 to 7.00

Given the entry Cc1cc2cc(-c3ccnc(-c4cn(C)c(=O)n4-c4ccc(C(C)(C)C#N)cc4)c3)cnc2[nH]1 [Example A85] , report its measured pIC50. 7.00 to 10.00

Query: pIC50; subject: COc1ccc(-c2ccnc(-c3c[nH]c(=O)n3-c3ccc(N4CCNCC4)c(C(F)(F)F)c3)c2)cn1 [Example A4] 5.00 to 7.00
